# TARGET_OR_SYSTEM: Phosphorylase b kinase gamma catalytic chain, liver/testis isoform (Homo sapiens);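 also: reported value is the mean inhibition of PHKG2 from the GSK_PKIS screening set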
# Sequence (whole entry): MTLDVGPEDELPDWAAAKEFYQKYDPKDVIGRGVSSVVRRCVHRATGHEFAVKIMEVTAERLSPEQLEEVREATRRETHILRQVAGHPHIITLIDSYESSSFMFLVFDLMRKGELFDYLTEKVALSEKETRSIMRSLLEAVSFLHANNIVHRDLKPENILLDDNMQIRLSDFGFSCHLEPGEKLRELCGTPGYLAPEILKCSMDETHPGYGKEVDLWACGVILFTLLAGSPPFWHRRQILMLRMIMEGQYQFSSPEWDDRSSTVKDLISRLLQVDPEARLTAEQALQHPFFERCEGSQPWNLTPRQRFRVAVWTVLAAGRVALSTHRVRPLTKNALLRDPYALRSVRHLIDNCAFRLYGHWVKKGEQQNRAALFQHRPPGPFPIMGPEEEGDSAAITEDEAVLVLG
# CONDITION: at 1 µM
QUANTITY_MEASURED: inhibition (%)
Please state the figure in %; there is no need to write the unit.

Known inhibition results, listed for orientation:
{"COMPOUND": "COc1ccccc1Nc1ncc(-c2ccccc2)o1", "TARGET_OR_SYSTEM": "Phosphorylase b kinase gamma catalytic chain, liver/testis isoform (Homo sapiens)", "inhibition, %": 5.8}
{"COMPOUND": "NS(=O)(=O)c1cccc(-c2ccc3c(NC(=O)C4CC4)n[nH]c3c2)c1", "TARGET_OR_SYSTEM": "Phosphorylase b kinase gamma catalytic chain, liver/testis isoform (Homo sapiens)", "inhibition, %": -2.76}
{"COMPOUND": "CCn1c(-c2nonc2N)nc2c(N3CCCC3)nccc21", "TARGET_OR_SYSTEM": "Phosphorylase b kinase gamma catalytic chain, liver/testis isoform (Homo sapiens)", "inhibition, %": -3.95}
{"COMPOUND": "CCn1c(-c2nonc2N)nc2ccncc21", "TARGET_OR_SYSTEM": "Phosphorylase b kinase gamma catalytic chain, liver/testis isoform (Homo sapiens)", "inhibition, %": -0.15}
{"COMPOUND": "CS(=O)(=O)CCN(CC#N)Cc1ccc(-c2ccc3ncnc(Nc4ccc(OCc5cccc(F)c5)c(Cl)c4)c3c2)o1", "TARGET_OR_SYSTEM": "Phosphorylase b kinase gamma catalytic chain, liver/testis isoform (Homo sapiens)", "inhibition, %": 1.52}

Dear colleague, I am looking for the recorded inhibition of the following compound: Nc1ncnc2occ(-c3ccc(NC(=O)Nc4cc(C(F)(F)F)cc(C(F)(F)F)c4)cc3)c12
-1.63

Dear colleague, I am looking for the recorded inhibition of the following compound: Cc1cccc(-c2n[nH]cc2-c2ccc3ncccc3n2)n1
-0.32

Dear colleague, I am looking for the recorded inhibition of the following compound: COc1cc(C=NNc2ncnc3c2cnn3-c2ccccc2)ccc1O
2

Dear colleague, I am looking for the recorded inhibition of the following compound: CC1=C(C(=O)Nc2ccc3[nH]ncc3c2)C(c2ccc(Cl)c(Cl)c2)CC(=O)N1 (stereo not given)
-0.26

Dear colleague, I am looking for the recorded inhibition of the following compound: CN1CCC(C(=O)Nc2n[nH]c3nnc(-c4ccccc4)cc23)CC1
9.48
